System: Plasmodium berghei
Experiment: Luciferase/luciferin-expressing antifolate-resistant parasites were used to infect a culture of HepG2 cells that were pre-incubated with compounds. Infected hepatocytes emit light due to the luciferase reaction. Assay results are presented as the percent inhibition of light emission compared to control. […]
Type: functional
Details: sporozoite, read-out: LUCIFERASE INFECTION ASSAY - IC90
Examples of compounds with documented IC90 follow.
Respond with the bare value in µM.

See these solved cases before continuing.
{"Compound": "Cc1ccc(CCCNC(=O)c2cc(C3CC3)n[nH]2)c(C)c1", "Units Text": "µM", "Data Value": 4.2}
{"Compound": "c1ccc2c(-c3cc(Nc4ccc5[nH]ccc5c4)ncn3)cccc2c1", "Units Text": "µM", "Data Value": 4.49}
{"Compound": "CC(C)(C)c1ccc(-c2cc(NC(=O)c3ccc(Cl)cc3Cl)[nH]n2)cc1", "Units Text": "µM", "Data Value": 3.08}

Quick note, IC90 for OCc1ccc(-c2cnc3ccc(-c4cccc(F)c4)nn23)cc1 landed at 8.2

Quick note, IC90 for N#Cc1c(Cl)nsc1NCc1cnn(Cc2ccccc2)c1 landed at 1.22

Quick note, IC90 for Cc1sc2nc(-c3cccnc3)nc(NCCNc3ccccn3)c2c1C landed at 1.71

Quick note, IC90 for Cc1cc2ncc(-c3ccnc(SCc4cccc(Cl)c4)n3)c(C)n2n1 landed at 8.63

Quick note, IC90 for CN(C)c1ccc(-c2cnc3cnc(-c4ccc(N)nc4)cn23)cc1 landed at 8.82

Quick note, IC90 for N#Cc1nc(=O)n(-c2ccc(OC(F)(F)F)cc2)c(N)c1/N=C/c1ccc(C(F)(F)F)cc1 landed at 4.82

Quick note, IC90 for COc1ccc(N2C(=O)c3ccccc3C(C=NNC(=O)c3ccc(C)cc3)C2=O)cc1OC (stereo not drawn) landed at 5.03

Quick note, IC90 for COc1cncc(-c2cncc(Nc3ccc(C(C)C)cc3)c2)c1 landed at 5.21

Quick note, IC90 for COc1cc(Nc2ccn3ncc(-c4ccc(OC(F)(F)F)cc4)c3n2)cc(OC)c1OC landed at 5.74

Quick note, IC90 for Oc1c(Cn2c(=S)sc3ccccc32)cc(Cl)c2cccnc12 landed at 1.24

Quick note, IC90 for Cc1nn(-c2ccccc2)c(Oc2ccccc2)c1/C=C1\C(=O)Nc2ccccc21 landed at 1.95

Quick note, IC90 for Cc1ccc(-c2nc(C(=O)NC3CC3)cc3c2[nH]c2ccccc23)cc1 landed at 7.38

Quick note, IC90 for OCc1ccc(-c2ccc3ncc(-c4cccnc4)n3n2)cc1 landed at 1.91

Quick note, IC90 for Cc1ccc(N2CC(C(=O)Nc3cc(C4CC4)n[nH]3)CC2=O)cc1 (stereo not drawn) landed at 2.23

Quick note, IC90 for Cc1ccc2nc(NC(=O)c3ccccc3C(F)(F)F)c(C(=O)NCC(C)C)n2c1 landed at 7.86

###

Test system: Plasmodium berghei
Assay: Luciferase/luciferin-expressing antifolate-resistant parasites were used to infect a culture of HepG2 cells that were pre-incubated with compounds. Infected hepatocytes emit light due to the luciferase reaction. Assay results are presented as the percent inhibition of light emission compared to control. […]
Type: functional
Conditions: sporozoite, HEPG2TOX_HILL_SLOPE 2.18, HEPG2TOX_R_SQUARED 0.863, PBLUC_HILL_SLOPE 2.29, PBLUC_R_SQUARED 0.755, read-out: LUCIFERASE INFECTION ASSAY - IC50
Readout Name: pIC50
Please report pIC50 as the negative decimal logarithm of the molar concentration, giving only the number.

Case COc1ccc(N(CCCN2C(=O)c3cccc4cccc(c34)C2=O)C(=O)c2ccccc2Cl)cc1 , Plasmodium berghei, pIC50 recorded as 6.60

###

Test system: Plasmodium berghei
Assay: Luciferase/luciferin-expressing antifolate-resistant parasites were used to infect a culture of HepG2 cells that were pre-incubated with compounds. Infected hepatocytes emit light due to the luciferase reaction. Assay results are presented as the percent inhibition of light emission compared to control. […]
Type: functional
Conditions: sporozoite, FFLUC_HILL_SLOPE 3.07, FFLUC_R_SQUARED 0.622, PBLUC_HILL_SLOPE 1.11, PBLUC_R_SQUARED 0.202, read-out: LUCIFERASE INFECTION ASSAY - IC50
Readout Name: IC50

Quick note, IC50 for O=C(Nc1nc(-c2cccs2)cs1)c1cc(-c2ccccc2)nn1-c1ccccc1 landed at > 10 µM

###

Test system: Plasmodium berghei
Assay: Luciferase/luciferin-expressing antifolate-resistant parasites were used to infect a culture of HepG2 cells that were pre-incubated with compounds. Infected hepatocytes emit light due to the luciferase reaction. Assay results are presented as the percent inhibition of light emission compared to control. […]
Type: functional
Conditions: sporozoite, FFLUC_HILL_SLOPE 0.533, FFLUC_R_SQUARED 0.87, PBLUC_HILL_SLOPE 0.528, PBLUC_R_SQUARED 0.783, read-out: LUCIFERASE INFECTION ASSAY - IC50
Readout Name: IC50 (nM)
Respond with the bare value in nM.

Quick note, IC50 for COC(=O)[C@@H](NC(=O)Nc1ccc(-c2nc3ccccc3s2)cc1)C(C)C landed at 264

###

Tested on: Plasmodium berghei
Test: Luciferase/luciferin-expressing antifolate-resistant parasites were used to infect a culture of HepG2 cells that were pre-incubated with compounds. Infected hepatocytes emit light due to the luciferase reaction. Assay results are presented as the percent inhibition of light emission compared to control. […]
Type: functional
Conditions: sporozoite, FFLUC_HILL_SLOPE 1.74, FFLUC_R_SQUARED 0.65, PBLUC_HILL_SLOPE 1.01, PBLUC_R_SQUARED 0.27, read-out: LUCIFERASE INFECTION ASSAY - IC50
Readout Name: IC50 (µM)
Respond with the bare value in µM.

Quick note, IC50 for O=C1C(c2ccccc2)=C(c2ccccc2)C(c2ccccc2)=C1c1ccccc1 landed at 4.04

###

Test system: Plasmodium berghei
Assay: Luciferase/luciferin-expressing antifolate-resistant parasites were used to infect a culture of HepG2 cells that were pre-incubated with compounds. Infected hepatocytes emit light due to the luciferase reaction. Assay results are presented as the percent inhibition of light emission compared to control. […]
Type: functional
Details: sporozoite, HEPG2TOX_HILL_SLOPE 1.28, HEPG2TOX_R_SQUARED 0.792, PBLUC_HILL_SLOPE 4.73, PBLUC_R_SQUARED 0.266, read-out: LUCIFERASE INFECTION ASSAY - IC50
Readout Name: pIC50
Please report pIC50 as the negative decimal logarithm of the molar concentration, giving only the number.

Quick note, pIC50 for Cc1cc(C(=O)COc2ccc(C(N)=O)cc2)c(C)n1-c1ccc2c(c1)OCO2 landed at 5.47

###

Test system: Plasmodium berghei
Experiment: Luciferase/luciferin-expressing antifolate-resistant parasites were used to infect a culture of HepG2 cells that were pre-incubated with compounds. Infected hepatocytes emit light due to the luciferase reaction. Assay results are presented as the percent inhibition of light emission compared to control. […]
Assay type: functional
Conditions: sporozoite, read-out: LUCIFERASE INFECTION ASSAY - IC90
Examples of compounds with documented IC90 follow.
Respond with the bare value in µM.

See these solved cases before continuing.
{"Structure": "Cc1ccc(NC(=O)c2cc(-c3cc(Cl)ccc3C)[nH]n2)cc1NS(C)(=O)=O", "Measured On": "Plasmodium berghei", "Units Text": "µM", "IC90": 7.29}
{"Structure": "Cc1ccccc1-c1cn2c(-c3ccc4c(c3)OCO4)cnc2cn1", "Measured On": "Plasmodium berghei", "Units Text": "µM", "IC90": 0.821}
{"Structure": "CCNc1nc(CN2CCCCC2)nc2scc(-c3ccccc3)c12", "Measured On": "Plasmodium berghei", "Units Text": "µM", "IC90": 5.12}

Quick note, IC90 for COc1ccc(-c2ccnn2-c2nc3ccccc3nc2C(F)(F)F)cc1 landed at 8.87

Quick note, IC90 for O=C(CN1CCN(C(=O)/C=C/c2sc3ccccc3c2Cl)CC1)NC1CC1 landed at 8.7

Quick note, IC90 for O=C(NCCNc1ccnc2cc(Cl)ccc12)c1ccccc1F landed at 8.82

###

Test system: Plasmodium berghei
Test: Luciferase/luciferin-expressing antifolate-resistant parasites were used to infect a culture of HepG2 cells that were pre-incubated with compounds. Infected hepatocytes emit light due to the luciferase reaction. Assay results are presented as the percent inhibition of light emission compared to control. […]
Format: functional
Details: sporozoite, FFLUC_HILL_SLOPE 2.47, FFLUC_R_SQUARED 0.615, PBLUC_HILL_SLOPE 18.2, PBLUC_R_SQUARED 0.514, read-out: LUCIFERASE INFECTION ASSAY - IC50
Readout Name: pIC50
Please report pIC50 as the negative decimal logarithm of the molar concentration, giving only the number.

Quick note, pIC50 for COc1ccc2c(-c3ccccc3)cc(SC(C)C(=O)N3CCNC3=O)nc2c1 (stereo unspecified) landed at 5.95

###

System: Plasmodium berghei
Test: Luciferase/luciferin-expressing antifolate-resistant parasites were used to infect a culture of HepG2 cells that were pre-incubated with compounds. Infected hepatocytes emit light due to the luciferase reaction. Assay results are presented as the percent inhibition of light emission compared to control. […]
Format: functional
Conditions: sporozoite, read-out: LUCIFERASE INFECTION ASSAY - IC90
Examples of molecules with documented IC90 follow.
Respond with the bare value in µM.

See these solved cases before continuing.
{"Molecule": "O=C(NNC(=O)c1cc2c(s1)CCC2)c1csc(COc2ccc(F)cc2)n1", "Readout Name": "IC90", "Units Text": "µM", "Data Value": 8.59}
{"Molecule": "O=C(CN1CCC(Nc2ncnc3cc(Cl)ccc23)CC1)Nc1ccccc1", "Readout Name": "IC90", "Units Text": "µM", "Data Value": 5.83}
{"Molecule": "NC(Cc1ccccc1)c1csc(Nc2ccc(C(=O)c3ccccc3)cc2)n1 (stereo not given)", "Readout Name": "IC90", "Units Text": "µM", "Data Value": 1.15}

Quick note, IC90 for CCOc1cccc(-c2cn3c(-c4ccc(C(=O)NC5CC5)cc4)cnc3cn2)c1 landed at 8.02
